system.tested: Desmoglein-3 (Homo sapiens) (UniProt P32926)
Sequence (P32926 whole entry, looked up, the tested form may be a part): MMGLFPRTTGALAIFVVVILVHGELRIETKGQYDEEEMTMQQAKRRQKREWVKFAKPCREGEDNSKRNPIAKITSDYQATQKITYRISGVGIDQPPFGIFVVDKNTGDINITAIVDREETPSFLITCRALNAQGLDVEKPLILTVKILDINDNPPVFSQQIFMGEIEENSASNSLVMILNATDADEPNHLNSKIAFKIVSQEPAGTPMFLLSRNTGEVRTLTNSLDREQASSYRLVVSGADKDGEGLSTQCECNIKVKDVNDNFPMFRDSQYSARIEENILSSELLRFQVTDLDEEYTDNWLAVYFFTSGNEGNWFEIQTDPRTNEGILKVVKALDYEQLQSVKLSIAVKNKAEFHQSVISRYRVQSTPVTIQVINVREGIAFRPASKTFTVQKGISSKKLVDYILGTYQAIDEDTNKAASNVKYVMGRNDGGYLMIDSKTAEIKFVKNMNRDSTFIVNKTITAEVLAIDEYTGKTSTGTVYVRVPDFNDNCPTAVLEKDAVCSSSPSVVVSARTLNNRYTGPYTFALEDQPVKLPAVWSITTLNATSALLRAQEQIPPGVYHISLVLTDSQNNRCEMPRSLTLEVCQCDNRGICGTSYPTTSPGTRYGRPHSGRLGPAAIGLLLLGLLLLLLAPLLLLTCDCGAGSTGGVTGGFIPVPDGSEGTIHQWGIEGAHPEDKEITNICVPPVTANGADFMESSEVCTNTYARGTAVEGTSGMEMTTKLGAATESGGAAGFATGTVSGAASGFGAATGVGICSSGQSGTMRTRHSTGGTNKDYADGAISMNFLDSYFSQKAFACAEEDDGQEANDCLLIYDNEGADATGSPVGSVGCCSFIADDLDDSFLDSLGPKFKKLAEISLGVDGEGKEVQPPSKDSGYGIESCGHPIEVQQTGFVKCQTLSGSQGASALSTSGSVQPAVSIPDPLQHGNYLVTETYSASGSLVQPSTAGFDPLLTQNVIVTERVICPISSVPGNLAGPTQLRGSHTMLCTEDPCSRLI
method: blockers of anti-DSG3 scFv binding – biochemical, bead-based, flow cytometry, scFv-GFP, primary screen (AID 588358);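 further: hits lower antibody fragment binding to DSG3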
study.conditions: DSG3-coupled beads, at 10 µM, stronger effect = lower value
About 1,500 (0.48%) of roughly 310,000 compounds were called active. This excerpt belongs to a sample that is enriched for actives.
The following molecules are shown together with reported binding (percent of control) values.
Express your answer in %, writing the number without its unit.

Completed entries (count: 3):
# query: binding (percent of control) | item `O=C(c1ccc(CSc2ccccc2)cc1)N1CCCCCC1` | system: Desmoglein-3 (Homo sapiens) (UniProt P32926)
105

Likewise for `Cc1onc(-c2ccccc2)c1-c1nnc(COC(=O)c2ccc(N(C)C)cc2)o1` ?
109

Also need `COc1ccc(C(=O)CCC(=O)Nc2ccc(Cl)cc2)cc1` , thanks.
102

# ---- query molecule ----
Give Desmoglein-3 (Homo sapiens) (UniProt P32926) binding (percent of control) for `COc1ccc2c(c1)c1ncn(Cc3ccccn3)c(=O)c1n2C`
112

----------
system.tested: Desmoglein-3 (Homo sapiens) (UniProt P32926)
method: blockers of anti-DSG3 scFv binding – biochemical, bead-based, flow cytometry, scFv-GFP, primary screen (AID 588358);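 further: hits lower antibody fragment binding to DSG3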
study.conditions: DSG3-coupled beads, at 10 µM, stronger effect = lower value
Out of some 310,000 compounds screened, about 1,500 (0.48%) were called active. What follows is part of a selection rich in actives, with near analogues and random picks from the rest.
Measured binding (percent of control) values are reported for all entries that follow.
Could you give me the number in %? Just the number is fine.

Worked cases, binding (percent of control) given:
# lookup: binding (percent of control) of `CCOC(=O)c1sc(NC(=O)c2sc(C)nc2C)nc1C`
96.7

Check CCOC(=O)c1sc(NC(=O)C(CC)Sc2nccn2C)nc1C (stereo not given) too.
83.3

Here is the next compound: CCN(CC)C(=O)C1=C(C)N(Cc2ccc(F)cc2)C(=O)C(CC(=O)NC2CCCC2)C1 (stereo not given)
109

Here is the next compound: O=C(COC(=O)/C=C/c1ccc(Cl)cc1)NC1CCS(=O)(=O)C1 (stereo not given)
107

Let us now turn to `O=S(=O)(c1ccc(Br)cc1)c1nc(-c2ccccc2)oc1NCc1cccnc1`
78.8

---
Given the compound COc1ccc(NC(=O)COC(=O)C2COc3ccccc3O2)cc1 (stereo not given) , what is its reported binding (percent of control)?
100

Item: `CCOC(=O)c1c(NC(=S)SC)sc(C(=O)N2CCc3ccccc3C2)c1C`
100

Field entry: `CCOC(=O)c1cc(-c2sc(NC(=O)c3ccccc3)nc2C)n(-c2ccc(Br)cc2)n1`
102

Please do the same for C=CCn1c2ccccc2c2nnc(SC(CC)C(=O)Nc3nc(C)c(C(=O)OCC)s3)nc21 (stereo not given) as well.
93.3

How about `CN(c1ccccc1)S(=O)(=O)c1ccc(C(=O)NCc2cccnc2)cc1` ?
97.8

----------
Each entry below carries its recorded binding (percent of control).
system.tested: Desmoglein-3 (Homo sapiens)
method: blockers of anti-DSG3 scFv binding – biochemical, bead-based, flow cytometry, scFv-GFP, primary screen (AID 588358);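 further: hits lower antibody fragment binding to DSG3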
study.conditions: DSG3-coupled beads, at 10 µM, stronger effect = lower value
About 1,500 (0.48%) of roughly 310,000 compounds were called active. Shown is part of a subset that was picked to be rich in actives.
The figure you give is taken to be in %; do not add the unit.

// query binding (percent of control) value for entry `C[C@H]1NS(=O)(=O)c2cc(Cl)ccc2O[C@@H]1c1ccccc1`
98.4

Please give the result for COc1ccc(-c2noc(CNC(=O)C(C)Oc3ccccc3)n2)cc1 (stereo not given) too.
109

Query `COc1ccc([C@H]2C[C@@H](n3cc(COC(=O)c4ccccc4)nn3)[C@H](O)CN2C(=O)c2cccs2)cc1` next
106

Field entry: `CCOc1ccc(/C=C2\SC(=S)N(NC(=O)c3ccncc3)C2=O)cc1OC`
106

Another compound to check: `Cc1ccc(Oc2cnn(-c3ccccc3)c(=O)c2Br)cc1`
117

More entries:
Fill in the blank: the reported binding (percent of control) of `Cc1ccc(-c2nc3ccc(Cl)cn3c2Cc2ccccc2)cc1` is ____.
111

Now this one: `Cc1cc2cc(CNC(=O)c3ccc(S(=O)(=O)N4CCOCC4)cc3)ccc2[nH]1`
95.4

Also CCN(CC)C(=O)C1=C(C)N(Cc2ccc(OC)cc2)C(=O)C(CC(=O)NCCCCc2ccccc2)C1 (stereo not given) ?
109

And `COc1cc(C)c(CN2CCN(C(=O)CCC(=O)c3ccc(C)s3)CC2)cc1OC` ?
98.2

Then this compound: `CCCCN1C[C@H](c2ccc(Br)cc2)[C@@H](CC(=O)Nc2ccc(Br)cc2)C1=O`
102

----------
system.tested: Desmoglein-3 (Homo sapiens) (UniProt P32926)
method: blockers of anti-DSG3 scFv binding – biochemical, bead-based, flow cytometry, scFv-GFP, primary screen (AID 588358);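 further: hits lower antibody fragment binding to DSG3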
study.conditions: DSG3-coupled beads, at 10 µM, stronger effect = lower value
The campaign covered roughly 310,000 compounds. About 1,500 (0.48%) were called active. The sample as a whole holds a higher share of actives than the screen did.
measured.metric: binding (percent of control) (%)
A number alone suffices; assume %.

These solved cases illustrate the format of a correct answer.
binding (percent of control) for `CCSc1nnc(SCC(=O)NNC(=O)c2ccccc2F)s1` ?
115

Try the compound `O=C(CCc1ccc(O)cc1)NN=Cc1cc(Br)ccc1O`
106

Moving on to `Cc1cc(C)c([N+](=O)[O-])cc1-c1ccc(/C=N/NC(=O)c2nonc2N)o1`
87.1

Continuing:
Look up binding (percent of control) for this compound: `COc1cc(OC)cc(C(=O)NCCSCc2ccc(Cl)cc2)c1`
76.3

Also `COc1ccc(N(CC(=O)NCCSCc2cccc(Cl)c2)S(C)(=O)=O)cc1` , if possible.
104

Also, `COc1cc(C(=O)N2CCOC23CCN(Cc2ccccc2)CC3)cc(OC)c1OC` please.
108

----------
Below, each of the compounds is paired with its reported binding (percent of control) value.
system.tested: Desmoglein-3 (Homo sapiens)
method: blockers of anti-DSG3 scFv binding – biochemical, bead-based, flow cytometry, scFv-GFP, primary screen (AID 588358);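 further: hits lower antibody fragment binding to DSG3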
study.conditions: DSG3-coupled beads, at 10 µM, stronger effect = lower value
Out of some 310,000 compounds screened, about 1,500 (0.48%) were called active. The sample holds actives, similar compounds and a random draw of the others, so the mix is not that of the screen.
# output: bare number, implied unit %

binding (percent of control) of `COc1ccc(C(C)(C)C)cc1NC(=O)CN(C)C1=NS(=O)(=O)c2ccccc21` on Desmoglein-3 (Homo sapiens)?
104

New cases:
binding (percent of control) of `CC1CCN(S(=O)(=O)c2ccc(S(=O)(=O)NCc3cccnc3)cc2)CC1` on Desmoglein-3 (Homo sapiens)?
94.4

Try the compound `O=S(=O)(NCc1ccccc1)c1ccc(S(=O)(=O)N2CCCC2)cc1`
7.03

`COc1cccc(OC)c1C(=O)Nc1sc2c(c1C(N)=O)CCCC2` , same question.
109

Next record, please: `C=CCN(CC=C)S(=O)(=O)c1ccc(C(=O)Nc2sc3c(c2C(N)=O)CCCCC3)cc1`
110

Also COc1ccc(-c2nc(CS(=O)CC(=O)NCc3ccccn3)c(C)o2)cc1 (stereo not given) , if possible.
17.1

And then `O=C(CSc1ccc([N+](=O)[O-])cn1)Nc1ccc(N2CCOCC2)cc1` , what is it?
96.9

Thanks! And CC1CCCN(S(=O)(=O)c2ccc(-c3ccc(=O)[nH]n3)o2)C1 (stereo not given) ?
49

Can you handle `O=c1ccc(-c2ccc(S(=O)(=O)Nc3ccccc3)o2)n[nH]1` next?
110

Lookup `CCOC(=O)c1cccc(NS(=O)(=O)c2c(C(=O)N3CCCCCC3)c(C)n(C)c2C)c1`
99.4

----------
system.tested: Desmoglein-3 (Homo sapiens) (UniProt P32926)
method: blockers of anti-DSG3 scFv binding – biochemical, bead-based, flow cytometry, scFv-GFP, primary screen (AID 588358);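 further: hits lower antibody fragment binding to DSG3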
study.conditions: DSG3-coupled beads, at 10 µM, stronger effect = lower value
In all, about 310,000 compounds went through this assay and about 1,500 (0.48%) were called active. For the sample, actives were picked, then their nearest neighbours and some compounds at random.
measured.metric: binding (percent of control)

Example results:
binding (percent of control) for `CCN1C(=O)[C@H]2[C@@H](c3ccc(C(F)(F)F)cc3)N[C@]3(CCCN(Cc4ccc(Br)cc4)C3=O)[C@H]2C1=O` ?
111% (inactive)

Another compound: `O=C(O)c1ccc(NN=CC2=C(N3CCOCC3)/C(=C/c3ccccc3)CC2)cc1`
109% (inactive)

What do you have for `COCCn1c(C)cc(C2=NNC(=Nc3ccc(F)cc3)SC2)c1C` ?
76.6% (active)

Others:
I have this compound here, `c1ccc(-c2cc(-c3ccccc3)[nH]n2)cc1` , and I need its recorded binding (percent of control).
95% (inactive)
